tested on: COLO 205 colon; assay: NCI-60 one-dose screen, 48 h; conditions: 10 µM unless noted
This is part of a sample that, as a whole, favours compounds with a hit. Of some 83,000 tested, about 20% had one in any assay. The source made the active and inactive calls. How the source made its calls: active means growth percent below 10; inactive means the rest.
The reply should name one outcome from active, inactive

Worked set:
- compound: "Cn1cc(-c2nc(-c3cn(C)c4ncccc34)cs2)c2cc(F)ccc21"
  cat: "inactive"
- compound: "Cn1c2ccccc2c2c3c(c4c5cccnc5[nH]c4c21)C(=O)N(O)C3=O"
  cat: "inactive"
- compound: "O=C1CCN2C(=O)Nc3ccccc3C2C1 (configuration not stated)"
  cat: "inactive"
- compound: "COc1cc2ncnc(Nc3ccc(OCc4cccc(F)c4)c(Cl)c3)c2cc1NC(=O)C1CCCC1"
  cat: "inactive"
- compound: "Cc1cc(N(CCCNc2ccnc3cc(Cl)ccc23)Cc2ccco2)nc(N2CCOCC2)n1"
  cat: "inactive"
- compound: "CC[C@]12C=CCN3CC[C@@]4(c5cc([C@H]6CCC(=O)N6)c(OC)cc5N(C)[C@H]4[C@@](O)(C(=O)OC)[C@@H]1OC(C)=O)[C@@H]32"
  cat: "inactive"
- compound: "COc1cccc(-c2nn(-c3ccccc3)cc2-c2ccnc(NCCCO)c2)c1"
  cat: "inactive"
- compound: "CCC(=O)c1c(C)[nH]c(C)c1C"
  cat: "inactive"
- compound: "CCCCn1c(-c2ccc(O)cc2)cn2c3c(=O)[nH]c(=O)n(C)c3nc12"
  cat: "inactive"
- compound: "C#CCn1c2c(c3ccccc31)C[C@]1(C)[C@H]3CC[C@@H]4[C@@H]5C(=CCC[C@H]5C(=C)C)CC[C@@]4(C)[C@]3(C)CC[C@H]1C2(C)C"
  cat: "inactive"

Any idea what this test logged for N#Cc1c(-c2ccco2)nc2c(c(-c3ccccc3)nn2-c2ccccc2)c1-c1ccc(O)cc1 ?
active

Give the logged outcome of this assay for the following compound: COc1cccc(-c2nn(-c3ccccc3)cc2-c2ccnc(NCCCN)c2)c1
inactive

====

Overview of reported growth across a group of compounds:
tested on: SR leukemia; assay: NCI-60 one-dose screen, 48 h (100 = growth as untreated, 0 = no growth, -100 = all killed); details: 10 µM unless noted
Compounds without any hit were thinned out: in the full panel of roughly 83,000, 20% have a hit.
The response must be a number in % with no trailing unit.

Examples from the recorded data:
- compound: "O=c1c(CNc2ccc(S(=O)(=O)Nc3nccs3)cc2)coc2ccccc12"
  obs value: 94.7
- compound: "CC1(C)C(=O)/C(=C\\c2ccccn2)C[C@]2(C)[C@H]3CC[C@@H]4[C@@H](C(=O)/C=C/c5ccccn5)CC[C@@]4(C)[C@]3(C)CC[C@@H]12"
  obs value: 3.7
- compound: "CCCC(=O)N1CCCCC1CC (stereo not drawn)"
  obs value: 102
- compound: "COc1ccc(/C(=C\\c2ccc3c(c2)OCO3)C(=O)Nc2nc3ccccc3s2)cc1OC"
  obs value: 69.8
- compound: "COc1cc(-c2cc(-c3nc4ccc(F)cc4[nH]3)[nH]n2)cc(OC)c1OC"
  obs value: 12.6
- compound: "CC1(C)NC2=C(C(Nc3cccnc3)N1)C(c1ccc([N+](=O)[O-])cc1)C(C(=O)c1ccc(N=[N+]=[N-])cc1)O2 (stereo not drawn)"
  obs value: 102
- compound: "COC(=O)[C@]12CC[C@@H](C)[C@H](C)[C@@H]1C1=CC(=O)[C@@H]3[C@@]4(C)C[C@@H](OC(C)=O)[C@H](OC(C)=O)[C@@](C)(COC(C)=O)[C@@H]4C(=O)C[C@@]3(C)[C@]1(C)CC2"
  obs value: 29.1

Read the next record carefully.
Quick one: growth of COc1cc2nc(Cl)nc(Nc3cccc(C(=O)/C=C/c4ccc(Br)cc4)c3)c2cc1OC ?
14.7
